# method: gradient 5% acetonitrile 3 min, to 50% in 2 min, to 85% in 15 min, held 3 min, 100 µL/min
# measurement_parameters: column: Zorbax Extend-C18 2.1 x 50 mm; eluents: water / acetonitrile, 0.1% formic acid
Some molecules, each annotated with its measured RP-LC retention time.
# value in s; strip the unit string

molecule_smiles: Cc1oc(C2CCN(S(=O)(=O)c3ccccc3F)CC2)nc1C(=O)N1CCCC1
units: s
RP-LC retention time: 886
//
molecule_smiles: COc1ccc(Cl)cc1NC(=O)c1cccn1-c1cccnc1
units: s
RP-LC retention time: 887
//
molecule_smiles: Cc1c2cnn(CC(=O)NCc3ccc4c(c3)OCO4)c(=O)c2c(C)n1Cc1cccc(Cl)c1
units: s
RP-LC retention time: 880
//
molecule_smiles: COc1ccc(NC(=O)C2CCN(C(=O)c3nnc(C(=O)Nc4ccc(F)cc4)s3)CC2)cc1
units: s
RP-LC retention time: 903

// below: RP-LC retention time requested for another molecule
For the molecule O=C(Cn1c2ccccc2n2c(=O)cc(-c3ccc(F)cc3)nc12)NCc1ccco1 , give its reported RP-LC retention time.
912

###

Some compounds, each annotated with its measured RP-LC retention time.
# method: gradient 5% acetonitrile 3 min, to 50% in 2 min, to 85% in 15 min, held 3 min, 100 µL/min
# measurement_parameters: column: Zorbax Extend-C18 2.1 x 50 mm; eluents: water / acetonitrile, 0.1% formic acid
# value in s; strip the unit string

Previously resolved entries follow.
molecule_smiles: COc1cccc(NC(=O)N2CCN(c3nc4ccccc4n3C)CC2)c1
experimental_value: 616

molecule_smiles: Cc1cc2ccccc2n1-c1ccc(C(N)=O)s1
experimental_value: 842

molecule_smiles: CCC(CC)C(=O)Nc1nc(-c2ccc(Cl)cc2)cs1
experimental_value: 1150

molecule_smiles: CCn1c(=O)sc2cc(S(=O)(=O)N3CCC(C(=O)Nc4ccc(C)c(Cl)c4)CC3)ccc21
experimental_value: 905

molecule_smiles: Cc1ccc2c(c1)N(CCC(C)C)N=C(C(=O)N1CCCCC1)S2(=O)=O
experimental_value: 1080

For the compound O=C(c1cc(-c2cccnc2)n[nH]1)N1CCN(C(=O)c2ccc(Br)o2)CC1 , give its reported RP-LC retention time.
605

For the compound COc1cc(C(=O)Nc2nc(-c3ccc(C)cc3)c(C)s2)c(Br)c(OC)c1OC , give its reported RP-LC retention time.
1190

###

Some compounds, each annotated with its measured RP-LC retention time.
# method: gradient 5% acetonitrile 3 min, to 50% in 2 min, to 85% in 15 min, held 3 min, 100 µL/min
# measurement_parameters: column: Zorbax Extend-C18 2.1 x 50 mm; eluents: water / acetonitrile, 0.1% formic acid
# value in s; strip the unit string

Previously resolved entries follow.
compound: CCCOc1nccnc1NC1CCN(C(=O)c2ccsc2)CC1
units: s
experimental_value: 713
--
compound: CCOc1ccc(CNC(=O)c2cnc(OC)nc2)cc1
units: s
experimental_value: 732
--
compound: CCOC(=O)c1noc2ncnc(Nc3cccc(F)c3)c12
units: s
experimental_value: 616
--
compound: CCOc1ccc(-c2ccnc3c(C(=O)Nc4cc(C)cc(C)c4)cnn23)cc1
units: s
experimental_value: 1320
--
compound: CCCc1nc(N2CCN(c3ccccn3)CC2)ncc1C(=O)O
units: s
experimental_value: 606

For the compound Cc1ccc(-n2c(=O)c3c(cc(C)n3C)n(CC(=O)Nc3cccc(C#N)c3)c2=O)cc1 , give its reported RP-LC retention time.
822

For the compound O=C(Nc1cccc(F)c1)c1nnc(CSCC(=O)N2CCN(c3ccccn3)CC2)s1 , give its reported RP-LC retention time.
654

For the compound CCC(=O)n1nc(C)c(S(=O)(=O)N2CCCCC2)c1C , give its reported RP-LC retention time.
1040
